tested on: HCT-15 colon; experiment: NCI-60 one-dose screen, 48 h; details: 10 µM unless noted
Compounds without any hit were thinned out: in the full panel of roughly 83,000, 20% have a hit. The source made the active and inactive calls. The calls were made as follows: active = growth percent below 10; inactive = the rest.
Your response should consist of one outcome taken from y (active), n (inactive)

Here's what some known entries look like.
- Compound: "C#Cc1cccc(NC(=O)Nc2cccc(N=C=S)c2)c1"
  Target System: "HCT-15 colon"
  Label Class: "n"
- Compound: "c1ccc(N2N=C(c3cccc(Nc4ccncc4)c3)CC2c2ccc3c(c2)OCO3)cc1 (stereo unspecified)"
  Target System: "HCT-15 colon"
  Label Class: "y"

Write down the call the test reported for this compound. Item: O=C1Nc2c(ccc(Cl)c2Cl)/C1=C/c1ccc(F)cc1
n

Write down the call the test reported for this compound. Item: CCC(=O)c1ccc(O)c(OC)c1
n

Write down the call the test reported for this compound. Item: Cc1c(C2=CCCCC2)c2ccccn2c1C(=O)c1cccc(S(=O)(=O)N2CCOCC2)c1
n

Write down the call the test reported for this compound. Item: C=C1C(=O)O[C@H]2[C@H]1CC/C(COC(=O)NCCc1c[nH]c3ccc(Cl)cc13)=C\CC[C@@]1(C)O[C@@H]21
y

Write down the call the test reported for this compound. Item: Cc1ccc(-c2csc(/N=C3\C(=O)Nc4ccccc43)n2)cc1
n

Write down the call the test reported for this compound. Item: O=C(Nc1ccccc1)Oc1ccccc1-c1ccccc1
n

Write down the call the test reported for this compound. Item: CCCc1cc2c(cc1Br)OCO2
n

Write down the call the test reported for this compound. Item: COc1ccc(C2=NN(C(C)=O)C(c3cn(Cc4ccc(Cl)cc4)c4ccccc34)C2)cc1 (stereo unspecified)
n

Write down the call the test reported for this compound. Item: O=C(Nc1nc(-c2ccccc2Cl)cs1)c1cc(-c2ccccc2)nc2ccc(Cl)cc12
n

* * *

Each record here notes measured growth.
system: NCI-H226 lung; assay: NCI-60 one-dose screen, 48 h (100 = growth as untreated, 0 = no growth, -100 = all killed); conditions: 10 µM unless noted
The panel holds about 83,000 compounds, 20% with a hit somewhere; the sample as a whole holds those more often.
Report the value in % with no unit label.

- Compound: "CC(=O)OC1CCC2(C)C(CCC3C4CC=C(C(C)=O)C4(C)OC(=O)CC32)C1 (stereo unspecified)"
  Reported: 45
- Compound: "O=C(N/N=C/c1cccnc1)c1ccccc1Nc1cccc(C(F)(F)F)c1"
  Reported: 109
- Compound: "COc1ccc(/C=N/NC(=O)c2cccc3cc[nH]c23)cc1O"
  Reported: 90.4
- Compound: "C=C(C)[C@@H]1CC[C@]2(C=O)CC[C@]3(C)[C@H](CC[C@@H]4[C@@]5(C)CCCNC(C)(C)[C@@H]5CC[C@]43C)[C@@H]12"
  Reported: 91.7
- Compound: "COc1cc(C2CC(c3cccc(Nc4ccncc4)c3)=NN2C(C)=O)cc(OC)c1OC (stereo unspecified)"
  Reported: 96.8
- Compound: "COc1ccncc1C#Cc1cncc(C(=O)Nc2ccc(CN3CCN(C)CC3)c(C(F)(F)F)c2)c1"
  Reported: 3.6
- Compound: "COc1cc(C(=O)c2cnc(-c3ccc4cc[nH]c4c3)[nH]2)cc(OC)c1OC"
  Reported: 26.2
- Compound: "O=C1c2ccccc2C(=O)c2c(NCCN=Cc3ccccc3O)cccc21"
  Reported: 56.3
- Compound: "CO[C@@H]1[C@H](N(C)C(=O)c2ccccc2)C[C@@H]2O[C@]1(C)n1c3ccccc3c3c4c(c5c6ccccc6n2c5c31)C(=O)NC4=O"
  Reported: 29
- Compound: "COc1cccc(/C=C2\\COc3ccc(-c4ccccc4)cc3C2=O)c1"
  Reported: 65.7

Return reported growth; argument: Cn1c(=O)c2[nH]c(CCCc3nc4c([nH]3)c(=O)n(C)c(=O)n4C)nc2n(C)c1=O
105

Return reported growth; argument: CC(=O)Nc1ccc(S(=O)(=O)NC2CCCCC2)cc1
86.6

Return reported growth; argument: COc1ccc(Cn2nc(-c3cc(OC)c(OC)c(OC)c3)c3c2CCc2cnoc2-3)cc1OC
84.5

Return reported growth; argument: CC(C)CN(C(=O)c1ccc(Cl)cc1)c1c(N)n(CC(C)C)c(=O)[nH]c1=O
98.7

Return reported growth; argument: CC(=O)N1N=C(c2cccc(Nc3ccncc3)c2)CC1c1ccc2c(c1)OCO2 (stereo unspecified)
94.6

Return reported growth; argument: CCOC(=O)C1CC(=O)c2cc(OC)c(OC)cc2C1 (stereo unspecified)
92.6
